Every entry's value here was drawn from patent US20260109763A1.

molecular target: human PILRA R78 on cells (human, UniProt Q9UKJ1 20-303); test: cell-based or functional assay
Sequence (Q9UKJ1 20-303 limits assumed): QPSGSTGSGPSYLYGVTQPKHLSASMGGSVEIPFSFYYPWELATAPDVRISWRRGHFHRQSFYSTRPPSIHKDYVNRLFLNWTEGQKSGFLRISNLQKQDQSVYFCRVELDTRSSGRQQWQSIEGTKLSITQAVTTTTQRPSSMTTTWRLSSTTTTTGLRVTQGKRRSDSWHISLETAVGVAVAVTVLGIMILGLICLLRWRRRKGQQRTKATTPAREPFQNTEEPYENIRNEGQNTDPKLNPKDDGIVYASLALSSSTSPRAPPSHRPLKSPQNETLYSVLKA
metric_name: pSTAT3 S727 induction, Fold Over Background (fold)
Entry rule: numbers only, all in fold.

Challenge: Need pSTAT3 S727 induction, Fold Over Background of Anti-PILRA antibody clone 15 (antibody, V domains shown, Humanized; also called Ab.15) VH: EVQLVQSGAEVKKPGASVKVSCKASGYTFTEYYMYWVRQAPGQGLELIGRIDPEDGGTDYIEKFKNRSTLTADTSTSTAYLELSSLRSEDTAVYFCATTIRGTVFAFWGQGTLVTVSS VL: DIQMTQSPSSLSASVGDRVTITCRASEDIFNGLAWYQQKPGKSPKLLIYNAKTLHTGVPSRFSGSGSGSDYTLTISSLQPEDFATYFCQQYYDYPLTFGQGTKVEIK , thanks.
Response given: 24.8
